Reference source: patent US20130129753A1

# key: entry, value: IC50 (ng Ab/mL), MTS viability of MDA-MB-468/hNotch cells (repeat 2)
- TGT: Notch receptor (human)
- PROTOCOL_NOTES: cell-based or functional assay
Only the number, expressed in ng Ab/mL, is required.

I have this binder here, Notch-28-v1010-hG1-(C)_mcValCitPABC-#112 (antibody, human IgG1, kappa, V domains shown, drug-linker mcValCitPABC-#112 on cysteine (C), positions not given; drug-linker mcValCitPABC-#112 on cysteine (C), positions not given; DAR 3.9 per antibody) VH: EVQLVESGGGLVQPGGSLRLSCAASGFTFRDYGMTWVRQAPGKGLEWVAYISSGSNYIYYAEAVKGRFTISRDNAKNSLYLQMNSLRAEDTAVYYCARRGPFVLDAWGQGTLVTVSS VL: DIQMTQSPSSLSASVGDRVTITCKASQSINRYLHWYQQKPGKAPKLLIYNANGLQTGVPSRFSGSGSGTDFTLTISSLQPEDFATYYCLQHNTWPDTFGGGTKVEIKR , and I need its recorded IC50 (ng Ab/mL), MTS viability of MDA-MB-468/hNotch cells (repeat 2).
3

Further, for Notch-75-v1913-hG1-(C)_mcValCitPABC-#54 (antibody, human IgG1, kappa, V domains shown, drug-linker mcValCitPABC-#54 on cysteine (C), positions not given; drug-linker mcValCitPABC-#54 on cysteine (C), positions not given; DAR 3.8 per antibody) VH: EVQLVESGGGLVQPGGSLRLSCAASGYAFTDYWMTWVRQAPGKGLEWVAEISPNSGGTNFNEKFKGRFTISVDNAKNSLYLQMNSLRAEDTAVYYCARGEIRYNWFAYWGQGTLVTVSS VL: DIQMTQSPSSLSASVGDRVTITCKASQNVGNNIAWYQQKPGKAPKLLIYYASNRYTGVPSRFSGSGYGTDFTLTISSLQPEDFATYYCQRLYNSPFTFGGGTKVEIKR ?
36

Further, for Notch-28-v1010-hG1-(C)_mcValCitPABC-#54 (antibody, human IgG1, kappa, V domains shown, drug-linker mcValCitPABC-#54 on cysteine (C), positions not given; drug-linker mcValCitPABC-#54 on cysteine (C), positions not given; DAR 3.9 per antibody) VH: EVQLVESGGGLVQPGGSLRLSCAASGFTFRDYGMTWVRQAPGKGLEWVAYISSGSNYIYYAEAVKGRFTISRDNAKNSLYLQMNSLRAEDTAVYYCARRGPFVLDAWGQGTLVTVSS VL: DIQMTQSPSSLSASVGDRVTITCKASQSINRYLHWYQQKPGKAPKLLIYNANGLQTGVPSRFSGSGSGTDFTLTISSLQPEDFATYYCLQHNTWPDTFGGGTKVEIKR ?
3
